Molecular target: mouse PPARγ (Mus musculus)
Construct: expressed in transfected cells; host or cells: HEK293T
Sequence (P37238 238-503 limits assumed): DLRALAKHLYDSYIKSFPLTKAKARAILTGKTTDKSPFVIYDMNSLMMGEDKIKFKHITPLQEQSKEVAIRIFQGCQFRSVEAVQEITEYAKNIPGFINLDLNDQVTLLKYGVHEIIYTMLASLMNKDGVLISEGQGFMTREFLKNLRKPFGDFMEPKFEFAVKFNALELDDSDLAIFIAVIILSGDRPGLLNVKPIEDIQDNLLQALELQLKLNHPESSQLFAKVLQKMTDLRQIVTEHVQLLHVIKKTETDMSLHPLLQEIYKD
Assay: PPARγ transactivation (GAL4 chimera luciferase gene activation) assay
Type: cell-based
Details: GAL4 DNA binding domain-PPARγ ligand binding domain chimera, pFR-Luc reporter, HEK293T cells, 20 hours incubation; read-out: Gene Activation Assay: EC50 PPAR gamma (number printed instead of a symbol)
Value Type: pEC50
# log scale: pEC50 equals minus log10 of the concentration in mol/L

Incoming: Fill in the blank: the reported pEC50 of Cc1cc(SCc2nn(-c3ccc(C(F)(F)F)cc3)nc2C)ccc1OC(C)(C)C(=O)O [Compound 210] is ____.
Outgoing: 5.00
